Source: ChEMBL document CHEMBL1201862

target-or-test-system: Glyceraldehyde-3-phosphate dehydrogenase (Homo sapiens)
Sequence (P04406 whole entry): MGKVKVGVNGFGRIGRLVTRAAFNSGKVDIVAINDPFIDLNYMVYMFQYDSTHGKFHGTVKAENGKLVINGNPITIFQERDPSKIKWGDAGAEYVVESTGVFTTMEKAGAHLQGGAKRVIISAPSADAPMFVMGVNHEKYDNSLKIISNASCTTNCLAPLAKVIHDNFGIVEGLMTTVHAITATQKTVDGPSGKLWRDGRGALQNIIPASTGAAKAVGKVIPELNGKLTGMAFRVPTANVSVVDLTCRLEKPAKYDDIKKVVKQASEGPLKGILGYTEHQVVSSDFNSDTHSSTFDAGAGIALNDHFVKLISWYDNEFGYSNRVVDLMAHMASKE
measured-endpoint: IC50

>>> test_value("O=C1C(Cl)=C(N2CCN(CCO)CC2)C(=O)N1c1cccc([N+](=O)[O-])c1")
"> 100 µM (not active)"
>>> test_value("Cn1c(=O)n(CC(N)=O)c(=O)n(-c2ccccc2)c1=O")
"> 100 µM (not active)"

Provide IC50 values for the following items, in order.
1. COc1ccc(C)cc1S(=O)(=O)Nc1ccc2ccccc2c1
2. COc1cccc(N2CCN(C3=C(Cl)C(=O)N(c4ccnc(Cl)c4)C3=O)CC2)c1
3. COc1ccc(Cc2nc(N)nn2-c2ccccc2)cc1
4. Clc1cccc(Cl)c1COc1nnc(-c2cccs2)c(-c2cccs2)n1

1: > 100 µM (not active); 2: > 50 µM (inconclusive); 3: > 100 µM (not active); 4: > 100 µM (not active)

* * *

target-or-test-system: Luciferin 4-monooxygenase (Photinus pyralis, UniProt P08659)
Sequence (P08659 whole entry): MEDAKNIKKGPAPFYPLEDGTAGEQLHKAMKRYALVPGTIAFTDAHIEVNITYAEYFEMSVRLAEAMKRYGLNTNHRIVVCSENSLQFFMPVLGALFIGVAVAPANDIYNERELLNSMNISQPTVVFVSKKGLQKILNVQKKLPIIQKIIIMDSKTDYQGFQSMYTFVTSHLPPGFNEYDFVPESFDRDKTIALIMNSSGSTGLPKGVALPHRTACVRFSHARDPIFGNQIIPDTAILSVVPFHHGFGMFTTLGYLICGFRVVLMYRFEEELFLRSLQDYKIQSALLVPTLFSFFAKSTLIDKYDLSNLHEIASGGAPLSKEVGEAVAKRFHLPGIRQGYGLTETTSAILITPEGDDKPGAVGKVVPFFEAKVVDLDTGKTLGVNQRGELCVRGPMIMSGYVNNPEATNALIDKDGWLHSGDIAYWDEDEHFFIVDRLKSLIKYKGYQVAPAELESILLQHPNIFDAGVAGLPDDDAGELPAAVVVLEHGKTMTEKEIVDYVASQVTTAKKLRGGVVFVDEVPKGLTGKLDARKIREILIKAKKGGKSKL
test-method-notes: inhibition of purified Photinus pyralis luciferase – biochemical, luminescence, dose response (AID 1891)
measured-endpoint: EC50

>>> test_value("COCc1cc(C)nc(SCC[N+](C)(C)CC(=O)c2ccc(Br)cc2)c1C#N")
"> 112 µM (not active)"
>>> test_value("CC(C)N1C[C@@]23C=C[C@@H](O2)C(C(=O)OCc2ccccc2)[C@H]3C1=O (stereo partly drawn)")
"> 112 µM (not active)"

Would you kindly look at the next entry?
# get_value(readout= EC50, system= Luciferin 4-monooxygenase (Photinus pyralis, UniProt P08659)) for Cc1ccc(NC(=O)Cc2nc(CCl)cs2)cc1
> 112 µM (not active)

* * *

AC50 tested on Cytochrome P450 2C9 (Homo sapiens): recorded values
Sequence (P11712 whole entry): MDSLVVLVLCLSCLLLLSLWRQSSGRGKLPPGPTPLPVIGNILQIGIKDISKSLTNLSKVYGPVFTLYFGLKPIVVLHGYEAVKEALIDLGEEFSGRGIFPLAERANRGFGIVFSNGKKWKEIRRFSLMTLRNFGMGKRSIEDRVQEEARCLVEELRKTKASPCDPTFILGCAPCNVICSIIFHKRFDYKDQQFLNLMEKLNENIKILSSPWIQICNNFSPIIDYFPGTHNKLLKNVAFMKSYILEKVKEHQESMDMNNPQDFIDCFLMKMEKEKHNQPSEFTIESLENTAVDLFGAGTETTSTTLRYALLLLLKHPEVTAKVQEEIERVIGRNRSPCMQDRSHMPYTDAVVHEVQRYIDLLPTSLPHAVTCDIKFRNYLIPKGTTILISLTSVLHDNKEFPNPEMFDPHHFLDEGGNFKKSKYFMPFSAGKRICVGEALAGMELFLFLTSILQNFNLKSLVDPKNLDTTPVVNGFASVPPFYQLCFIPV

Some solved cases for reference:
>>> test_value("CCCCNC(=O)c1cc2nc3c(c(C(F)(F)F)n2n1)CCc1ccccc1-3")
"0.398 µM (inconclusive)"
>>> test_value("O=c1onc2cnc3ccccc3n12")
"39.8 µM (inconclusive)"

Would you kindly look at the next entry?
Could you share which AC50 value was measured for C=CCN=C(NC#N)SCc1ccccc1 ?
15.8 µM (inconclusive)

* * *

target-or-test-system: Corticotropin-releasing factor receptor 2/Corticotropin-releasing factor-binding protein (Homo sapiens, UniProt P24387+Q13324)
Sequence (Q13324 whole entry): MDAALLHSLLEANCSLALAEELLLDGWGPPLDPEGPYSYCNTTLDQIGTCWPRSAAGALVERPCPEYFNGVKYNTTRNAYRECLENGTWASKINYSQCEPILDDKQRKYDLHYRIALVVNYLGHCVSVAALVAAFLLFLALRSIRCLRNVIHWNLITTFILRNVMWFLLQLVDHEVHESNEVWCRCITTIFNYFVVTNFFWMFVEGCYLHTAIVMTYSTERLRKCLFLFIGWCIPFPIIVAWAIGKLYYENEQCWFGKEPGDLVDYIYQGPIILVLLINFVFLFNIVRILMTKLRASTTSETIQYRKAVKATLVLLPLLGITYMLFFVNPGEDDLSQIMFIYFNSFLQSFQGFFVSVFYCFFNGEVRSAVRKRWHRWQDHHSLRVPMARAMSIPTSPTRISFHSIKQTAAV
Sequence (P24387 whole entry): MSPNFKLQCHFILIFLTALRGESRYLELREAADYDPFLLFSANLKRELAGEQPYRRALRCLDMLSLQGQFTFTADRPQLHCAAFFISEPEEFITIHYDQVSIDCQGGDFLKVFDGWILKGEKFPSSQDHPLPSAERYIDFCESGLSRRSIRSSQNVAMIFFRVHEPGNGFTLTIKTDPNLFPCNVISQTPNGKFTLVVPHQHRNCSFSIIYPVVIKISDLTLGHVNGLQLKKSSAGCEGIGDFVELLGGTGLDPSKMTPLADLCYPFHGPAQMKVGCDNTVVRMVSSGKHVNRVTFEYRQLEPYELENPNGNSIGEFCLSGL
test-method-notes: activators of CRF receptor 2 with binding protein – uHTS hits, confirmation (AID 602473)
Assay type: functional
run-parameters: read-out: EC50_Mean
Calls of active or inactive are those of the source.
// allowed return values: TRUE for active, FALSE for inactive

# lookup: test call for Cc1ccc2nc(NCCC(=O)O)nc(-c3ccccc3)c2c1
TRUE

* * *

test-method-notes: Luminescence Cell-Based Dose Response HTS to Identify Inhibitors of 5'UTR Stem-Loop Driven Prion Protein mRNA Translation in H4 Neuroglioblastoma Cells. [Related pubchem assays: 1827 (Project Summary), 1813 (Primary HTS)]
Type: functional
The source made the active and inactive calls.
Assign EC50 to each entry below.

>>> test_value("Cc1cccc2c1Sc1ccc(Cl)cc1CC2N1CCNCC1 (stereo unspecified)")
"116 µM (active)"

Provide EC50 values for the following items, in order.
1. O=C(/C=C/c1cccs1)NC(=S)NNC(=O)c1ccccc1O
2. CCCNC(=O)c1ccc2c(O)c(O)c(-c3ccc(C)cc3)nc2c1
3. CCc1nnc(NC(=O)CSc2nnc(C3CCCCC3)n2-c2cccc(Cl)c2)s1

9.65 µM (active)
> 120 µM (not active)
> 120 µM (not active)

Provide EC50 values for the following items, in order.
1. O=C(Nc1ccncc1)c1cc(-c2cccc(Br)c2)nc2ccccc12
2. O=C(O)CCCc1nc(-c2ccc(Cl)cc2)no1

1. > 120 µM (not active)
2. 23.1 µM (active)
